Sourced from PubChem BioAssay (NCI)

Below, each entry is listed with its recorded TGI.
test system: SW-620 colon; assay: NCI tumour cell line growth inhibition, 48 h

[ask] Requested field: TGI. Item: O=c1[nH][nH]c(=O)c2c(O)c(-c3ccccc3)ncc12
[reply] 891 µM

[ask] Using the record for CN(C)C1(N(C)C)Oc2c(c(=O)n(C)c(=O)n2C)C(c2ccc(F)cc2)C1(F)F (centres undefined) , report its TGI.
[reply] > 100 µM

[ask] For O=C(O)c1ccc(Nc2nc3ccc(C(F)(F)F)cc3nc2-c2ccccc2)cc1 , what is its reported TGI?
[reply] > 100 µM

[ask] Any idea what TGI was measured for CCc1nc(N)nc(N)c1-c1ccc(N(C)Cc2ccccc2)c([N+](=O)[O-])c1 ?
[reply] 26.5 µM

[ask] Reported TGI for NC1C2C=CC(C2)C1C(=O)O (centres undefined) : what is it?
[reply] > 100 µM

[ask] Which measured TGI value corresponds to Cc1cc(C(=O)CC(Cl)=C(Cl)Cl)c(Cl)cc1Cl ?
[reply] 52.3 µM

[ask] Any idea what TGI was measured for O=C(Nc1ccccc1)c1cc2cc(CCl)ccc2oc1=O ?
[reply] > 100 µM

[ask] Requested read-out: TGI. Entry: CCn1c(=O)c2c3ccc(O)cc3[nH]c2c2ccc(O)cc21
[reply] > 100 µM

[ask] I would be grateful if you could share the reported TGI for O=C(O)c1ccc(Nc2nc3ccc(C(F)(F)F)cc3nc2C(=O)O)cc1 .
[reply] > 100 µM

[ask] Fill in: TGI of COc1ccc2nc3c([N+](=O)[O-])ccc4c3c(c2c1)N=CN4CCN(C)C is ___
[reply] > 42.6 µM

[ask] // TGI lookup, key: CCCC1(N2C(=O)c3ccc4c5c(ccc(c35)C2=O)N(C2(CCC)CCCCC2)C4=O)CCCCC1
[reply] > 100 µM

[ask] # input compound: O=C(CC1(O)C(=O)Nc2c(Cl)cc(Cl)cc21)c1ccc([N+](=O)[O-])cc1 (centres undefined) ; wanted: its TGI
[reply] > 63 µM

[ask] Which measured TGI value corresponds to COc1ccc(Cl)cc1Nc1nc(C(F)(F)F)ccc1C(=O)N/N=C/c1ccccc1Cl ?
[reply] > 100 µM

[ask] So what does the record say about TGI for O=C1Nc2n[nH]c(=S)n2NC12c1ccccc1-c1ccccc12 ?
[reply] > 100 µM

[ask] Field request: TGI | item: CC(c1ccccc1)n1c2ccccc2c2c(N)ncnc21 (centres undefined)
[reply] 47.4 µM

[ask] So what's the measured TGI for this one? O=C(CCN1CCCC1)Nc1ccc2c(Nc3ccc(Br)cc3)c3ccccc3nc2c1
[reply] 2.64 µM

[ask] For the compound shown here, CC(C)(C)c1cc(OCc2n[nH]c(=S)n2N)c(Cl)cc1OCc1n[nH]c(=S)n1N , give the reported TGI.
[reply] > 100 µM

[ask] // query TGI value for entry CCCCCC1CC(C(C)=O)CN1c1ccc(F)cc1 (centres undefined)
[reply] > 100 µM

###

test system: CAKI-1 renal; test: NCI tumour cell line growth inhibition, 48 h
Where a SMILES comes first, the peptide text is derived from it. Bridges are numbered along the chain shown (N, C = ends).
Endpoint: TGI (µM)
Express your answer in µM, writing the number without its unit.

See these solved cases before continuing.
[ask] I'd like to know its TGI. The molecule in question is CCOC(=O)Cc1ccc(Nc2nc3cc(F)c(F)cc3nc2C(=O)OCC)cc1
[reply] 42.9

[ask] Query: TGI; subject: CCCCNP1(NCCCC)=NP(NCCCC)(NCCCC)=NP(NCCCC)(NCCCC)=NP(NCCCC)(NCCCC)=N1
[reply] 36

[ask] # get_value(readout='TGI', item= O=C1NC(c2cccc3ccccc23)Nc2ccccc21 (centres undefined) )
[reply] 1.82

Shift focus to the following entry.
[ask] Item under review: CCC(C)C1NC(=O)C(CC(C)C)NC(=O)C(C(C)C)NC(=O)C2CSSCC(NC1=O)C(=O)N2 (centres undefined) (cyclo(CCVLI); disulfide 1-2; configuration not given here) . Reported TGI?
[reply] 5.41

###

system: NCI-H23 lung; assay: NCI tumour cell line growth inhibition, 48 h
Measured TGI accompanies every entry in the list below.

Known TGI results, listed for orientation:
[ask] Look up TGI for this compound: NS(=O)(=O)c1ccc(-n2nc(-c3ccccc3)cc2-c2cc(O)ccc2O)cc1
[reply] > 100 µM

[ask] Using the record for CCOC(=O)C1=C(C)C2C3C(=O)OC(=O)C3C1(C)C1C(=O)OC(=O)C21 (stereo not given) , report its TGI.
[reply] > 100 µM

[ask] Looking for the measured TGI of CC(Oc1ccc2c(=O)cc(-c3ccccc3)oc2c1)C(=O)O (stereo not given) , can you help?
[reply] > 100 µM

[ask] May I ask what TGI has been recorded for CC(C)c1ccc(C(O)(C(=O)O)c2ccc(C(C)C)cc2)cc1 ?
[reply] > 100 µM

[ask] Suppose we examine the compound CCOC(=O)NC(C(F)(F)F)(C(F)(F)F)P(=O)(OCC)OCC ; what TGI value has been reported?
[reply] > 100 µM

More entries:
[ask] Which TGI value is on record for CCCCCC1CC(C(C)=O)CN1c1ccc(F)cc1 (stereo not given) ?
[reply] 63.8 µM

[ask] # query: TGI of entry CCCCCCCCC1C(C)c2c([nH]c3ccccc23)C2C(=O)N(c3ccccc3)C(=O)C21 (stereo not given)
[reply] 14.7 µM

###

test system: CAKI-1 renal; assay: NCI tumour cell line growth inhibition, 48 h
Listed next: entries and their corresponding log10(TGI).
log10 TGI, µM

Solved cases below.
[ask] # input compound: O=c1oc2ccc(I)cc2c(=O)n1-c1ccc(I)cc1F ; wanted: its log10(TGI)
[reply] 0.40

[ask] May I ask what log10(TGI) has been recorded for CCCc1cn2c(/C=N/N=C(N)N)c(-c3ccc([N+](=O)[O-])cc3)nc2s1 ?
[reply] 0.49

[ask] So what does the record say about log10(TGI) for Cc1cc2oc(=O)cc(OC/C=C3/CCC(=O)O3)c2cc1C ?
[reply] 1.25

[ask] Fill in: log10(TGI) of Cc1cc(C(=O)CC(Cl)=C(Cl)Cl)c(Cl)cc1Cl is ___
[reply] 1.62

Continuing:
[ask] Endpoint output: log10(TGI) of O=C(CCN1CCCC1)Nc1ccc2c(Nc3ccc(Br)cc3)c3ccccc3nc2c1 . Value?
[reply] 0.46

[ask] Please report the recorded log10(TGI) for CCN(CC)CCNc1ccc(N=Nc2cnc3ccccc3c2)c2ccccc12 .
[reply] 0.51

###

tested on: U251 CNS
Bench note: report the call from TRUE (active), FALSE (inactive)

[ask] Outcome logged for CN(CCCCCCCCNc1ccnc2ccccc12)Cc1ccc(-c2ccc(-c3ccc(C#N)cc3)s2)cc1 in this assay:
[reply] TRUE

[ask] For this compound, state the assay outcome: Cn1c2ccccc2c2c(=O)n(CCCC(=O)NCCc3cnc[nH]3)c3c(-c4ccccc4)nnn3c21
[reply] FALSE

[ask] # lookup: test call for COc1ccc2c(c1)C(=O)/C(=C/c1cccc(OCC(=O)c3ccc([N+](=O)[O-])cc3)c1)CO2
[reply] FALSE

Others:
[ask] I'd appreciate the recorded outcome for O=C1c2c(c3c4ccccc4n(CCCCCCN4CCOCC4)c3c3[nH]c4ccccc4c23)C(=O)N1O from this test.
[reply] FALSE

###

tested on: MOLT-4 leukemia; test: NCI tumour cell line growth inhibition, 48 h
Items are presented alongside their recorded GI50.

# annotated cases, reported GI50 shown
[ask] Please look up its GI50: O=C1NC(c2cccc3ccccc23)Nc2ccccc21 (stereo not given)
[reply] 44.3 nM

[ask] Tell me the measured GI50 of CN(C)C[C@@H]1CCn2cc(c3ccccc32)C2=C(C(=O)NC2=O)c2cn(c3ccccc23)CCO1 , please.
[reply] 1950 nM

[ask] Requested field: GI50. Item: O=C(C(=O)c1cccnc1)c1cccnc1
[reply] > 100000 nM

[ask] Please report the recorded GI50 for COc1cc(C(=O)c2cnc(-c3ccc4cc[nH]c4c3)[nH]2)cc(OC)c1OC .
[reply] 59.7 nM

[ask] Given the compound CCN(CC)CCOc1ccc(NC(=O)C(C(C)C)N2C(=O)/C(=C/c3ccc(Br)cc3)SC2=S)cc1 (stereo not given) , what is its reported GI50?
[reply] 2680 nM

[ask] Param item = Cc1nccc2c3ccc(OCc4cn(-c5ccc(Br)cc5)nn4)cc3n(CCCc3ccccc3)c12 ; retrieve measured GI50.
[reply] 5550 nM

---
[ask] Recorded GI50 for O=C1/C=C/[C@@H](O)[C@@H]2C[C@@H](O)C[C@H]2/C=C/CCC[C@H](CCc2ccc(NC(=S)Nc3ccc4c(c3)C(=O)OC43c4ccc(O)cc4Oc4cc(O)ccc43)cc2)O1 , please?
[reply] 432 nM

[ask] Could you tell me which GI50 is on file for COc1ccc(Cl)cc1Nc1nc(C(F)(F)F)ccc1C(=O)N/N=C/c1ccccc1Cl ?
[reply] 1880 nM

[ask] What measured GI50 goes with C=C1C(=O)O[C@H]2[C@H]1CC/C(CNC(=O)C(C)c1ccc(CC(C)C)cc1)=C\CC[C@@]1(C)O[C@@H]21 (stereo not given in full) ?
[reply] 2390 nM

[ask] Entry COc1cc2c(cc1OC)-c1c(c3ccc([N+](=O)[O-])cc3c(=O)n1CCCN=[N+]=[N-])C2=O : reported GI50 = ?
[reply] 23300 nM

[ask] So what does the record say about GI50 for CN(CCCCCCCCNc1ccnc2ccccc12)Cc1ccc(-c2ccc(-c3ccc(C#N)cc3)s2)cc1 ?
[reply] 368 nM

[ask] What GI50 value was documented for this compound, NS(=O)(=O)c1ccc(-n2nc(-c3ccccc3)cc2-c2cc(O)ccc2O)cc1 ?
[reply] 8710 nM

[ask] Item under review: CCCn1cc(/C=N\N=C2\C(=O)Nc3ccc(C)cc32)c2ccccc21 . Reported GI50?
[reply] 682 nM

[ask] Looking for the measured GI50 of CCN(CC)CCNc1ccc(N=Nc2cnc3ccccc3c2)c2ccccc12 , can you help?
[reply] 1560 nM

[ask] I am curious: what GI50 value has been reported for CCOC1Oc2ccccc2C(=O)/C1=C\Nc1ccc(C(=O)O)c(O)c1 (stereo not given) ?
[reply] > 100000 nM
